Tested on: rodent lifetime carcinogenesis bioassay, tumor incidence TD50
Assay: carcinogenic potency in animals, long-term in vivo studies, CPDB compilation (AID 1745844)
Conditions: rat; strain Fischer 344; females; in drinking water; site: lung; lesion: several types; types named in the paper; dosed 40 weeks; study length 110 weeks
measure name: TD50

q: Using the record for CN(CC(O)CO)N=O (stereo unspecified) , report its TD50.
a: 0.646 mg/kg/day

---

System: rodent lifetime carcinogenesis bioassay, tumor incidence TD50
Experiment: carcinogenic potency in animals, long-term in vivo studies, CPDB compilation (AID 1745844)
Conditions: mouse; strain (C3H x RIII)F1 (MTV+); males; in drinking water; site: liver; lesion: several types; types named in the paper; dosed 104 weeks; study length 104 weeks
measure name: TD50

q: Item under review: O=S(=O)(O)NC1CCCCC1 . Reported TD50?
a: 1420 mg/kg/day

src = PubChem BioAssay AID1745844
